Where do the numbers come from? From patent US20180320217A1.

Tested on: diaphorase
PROTOCOL_NOTES: Formation of formazan dyes: NADH, diaphorase and malate (TABLE 8)
Format: biochemical, Clostridium kluyveri
RECORDED_CONDITIONS: NADH, diaphorase and malate; 12 h
METRIC: Formation of formazan dyes, absorbance, Means 12 h

COc1cc([N+](=O)[O-])c(S(=O)(=O)[O-])cc1-n1nc(C(=O)Nc2ccccc2)n[n+]1-c1cc(S(=O)(=O)O)c([N+](=O)[O-])cc1OC [XTT]: 2.45

Find Formation of formazan dyes, absorbance, Means 12 h (diaphorase) for the entry COc1cc(-c2ccc(-[n+]3nc(-c4ccc(C(=O)N(CCS(=O)(=O)[O-])CCS(=O)(=O)[O-])cc4)nn3-c3nc4ccccc4s3)c(OC)c2)ccc1-[n+]1nc(-c2ccc(C(=O)N(CCS(=O)(=O)[O-])CCS(=O)(=O)[O-])cc2)nn1-c1nc2ccccc2s1.[Na+].[Na+] [WST-5]
2.26
